assay.target: Induced myeloid leukemia cell differentiation protein Mcl-1 (Homo sapiens, UniProt Q07820)
Sequence (Q07820 whole entry, the tested form may be a part): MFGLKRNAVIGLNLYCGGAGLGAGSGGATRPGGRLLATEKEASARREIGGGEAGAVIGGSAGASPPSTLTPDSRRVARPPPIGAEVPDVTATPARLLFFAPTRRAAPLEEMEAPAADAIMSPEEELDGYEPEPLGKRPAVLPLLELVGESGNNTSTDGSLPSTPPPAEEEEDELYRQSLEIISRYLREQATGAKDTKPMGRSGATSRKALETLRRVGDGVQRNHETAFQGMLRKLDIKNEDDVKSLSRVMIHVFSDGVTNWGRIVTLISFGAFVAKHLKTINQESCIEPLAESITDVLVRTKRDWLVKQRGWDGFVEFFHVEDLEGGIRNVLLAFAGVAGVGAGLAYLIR
assay: Inhibition of FITC-Bak-BH3 binding to recombinant MBP-fused MCL1 (172 to 318 residues) (unknown origin) by TR-FRET assay
pKi: −log10 of the molar value.
assay.readout: pKi

structure_as_smiles=Cc1cc(OCCCc2c(C(=O)O)[nH]c3c(-c4c(CN5CCCCC5)nn(C)c4C)cccc23)cc(C)c1Cl assay_target="Induced myeloid leukemia cell differentiation protein Mcl-1 (Homo sapiens, UniProt Q07820)" numeric_value=7.66

(1) Cc1cc(OCCCc2c(C(=O)O)[nH]c3c(-c4c(C)nn(C)c4C)cccc23)cc(C)c1Cl
(2) Cc1cc(OCCCc2c(C(=O)O)[nH]c3c(-c4c(COCCN(C)C)nn(C)c4C)cccc23)cc(C)c1Cl
### Prompt Which entry shows the lesser value of pKi here, 1 or 2 ? Your choice should be expressed through its label.
### Response 1
